All figures here come from paper PMC12136037.

# system_tested: ~100 representative kinases (Homo sapiens)
# Construct: Recombinant protein kinase domains with a concentration of 2 μM
# Sequence (Q16566 whole entry, the tested form may be a part): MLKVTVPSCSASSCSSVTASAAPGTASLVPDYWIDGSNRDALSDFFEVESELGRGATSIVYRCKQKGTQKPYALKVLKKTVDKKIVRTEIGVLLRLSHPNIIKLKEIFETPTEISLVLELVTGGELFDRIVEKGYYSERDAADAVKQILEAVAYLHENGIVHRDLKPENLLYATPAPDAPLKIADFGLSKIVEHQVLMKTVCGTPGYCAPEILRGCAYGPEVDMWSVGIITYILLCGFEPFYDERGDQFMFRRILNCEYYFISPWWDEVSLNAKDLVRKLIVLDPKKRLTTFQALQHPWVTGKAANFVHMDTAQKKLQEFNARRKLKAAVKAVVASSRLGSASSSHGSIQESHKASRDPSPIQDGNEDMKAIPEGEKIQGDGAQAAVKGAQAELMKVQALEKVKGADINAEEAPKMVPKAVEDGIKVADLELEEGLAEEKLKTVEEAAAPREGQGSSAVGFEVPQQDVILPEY
# test_details: DSF 100 kinase selectivity screen;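 also: compound tested at 20 µM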
# Format: binding
# run_conditions: Protein CAMK4; average of three replicates
Would you mind labelling by dTm? At or over 2 K is Satisfied, under is Not satisfied.

Here's what some known entries look like.
Reported dTm at or above 2 K? Cc1cc(NC(=O)C2(C(=O)Nc3cccc(-c4c[nH]c5ncnc(N6CCOCC6)c45)c3)CC2)ccc1F
Satisfied

Reported dTm at or above 2 K? Cc1ccc(-n2nc(C(C)(C)C)cc2NC(=O)Nc2cccc(-c3c[nH]c4ncnc(N5CCOCC5)c34)c2)cc1
Satisfied

Further cases:
Reported dTm at or above 2 K? Cc1ccc(C(=O)Nc2ccc(CN3CCN(C)CC3)c(C(F)(F)F)c2)cc1C#Cc1c[nH]c2ncnc(N3CCOCC3)c12
Not satisfied

Reported dTm at or above 2 K? COc1cc(NC(=O)C2(C(=O)Nc3cccc(-c4c[nH]c5ncnc(N6CCOCC6)c45)c3)CC2)ccc1F
Satisfied

Reported dTm at or above 2 K? O=C(Nc1cccc(-c2c[nH]c3ncnc(N4CCOCC4)c23)c1)c1cccn(-c2ccc(F)cc2)c1=O
Not satisfied

Reported dTm at or above 2 K? O=C(Nc1cccc(-c2c[nH]c3ncnc(N4CCOCC4)c23)c1)C1(C(=O)Nc2cccc3c2CCC3)CC1
Satisfied

Reported dTm at or above 2 K? O=C(Nc1cccc(-c2c[nH]c3ncnc(N4CCOCC4)c23)c1)C1(C(=O)Nc2cc(Br)c(F)cc2F)CC1
Not satisfied

Reported dTm at or above 2 K? O=C(Nc1ccccc1)C1(C(=O)Nc2cccc(-c3c[nH]c4ncnc(N5CCOCC5)c34)c2)CC1
Not satisfied

Reported dTm at or above 2 K? COc1ccc(NC(=O)C2(C(=O)Nc3cccc(-c4c[nH]c5ncnc(N6CCOCC6)c45)c3)CC2)cc1
Not satisfied

Reported dTm at or above 2 K? COc1cc(C(=O)N2CCOCC2)c(F)cc1Nc1nc(N(C)C)c2c(Cl)c[nH]c2n1
Not satisfied

Reported dTm at or above 2 K? Cc1ccc(C(=O)Nc2ccc(CN3CCN(C)CC3)c(C(F)(F)F)c2)cc1C#Cc1cnc2[nH]ncc2c1 [GZD-824, reference compound]
Not satisfied

Reported dTm at or above 2 K? Cc1ccc(-n2nc(C(C)(C)C)cc2NC(=O)Nc2cccc(-c3c[nH]c4nc(Cl)nc(N5CCOCC5)c34)c2)cc1
Not satisfied

Reported dTm at or above 2 K? O=C(Nc1cccc(-c2c[nH]c3ncnc(N4CCOCC4)c23)c1)C1(C(=O)Nc2ccc(F)c(F)c2)CC1
Not satisfied

Reported dTm at or above 2 K? CN[C@@H]1C[C@H]2O[C@@](C)([C@@H]1OC)n1c3ccccc3c3c4c(c5c6ccccc6n2c5c31)C(=O)NC4
Satisfied

Reported dTm at or above 2 K? COc1cc(S(C)(=O)=O)ccc1Nc1nc(N(C)C)c2c(Cl)c[nH]c2n1
Not satisfied

Reported dTm at or above 2 K? CC(C)(C)c1cccc(NC(=O)C2(C(=O)Nc3cccc(-c4c[nH]c5ncnc(N6CCOCC6)c45)c3)CC2)c1
Not satisfied

Reported dTm at or above 2 K? CC(=O)N1CCN(c2nc(Cl)nc3[nH]cc(-c4cccc(NC(=O)Nc5cc(C(C)(C)C)nn5-c5ccc(C)cc5)c4)c23)CC1
Not satisfied

Reported dTm at or above 2 K? Cn1cc(-c2c[nH]c3ncnc(N4CCOCC4)c23)cc1C#N
Not satisfied

Reported dTm at or above 2 K? O=C(Nc1ccc(F)cc1)C1(C(=O)Nc2cccc(-c3c[nH]c4ncnc(N5CCOCC5)c34)c2)CC1
Satisfied
